- testTarget: recombinant human MASP2 active protease (amino acids 297-686, C-terminal His Tag) (human, UniProt O00187 297-686)
- Sequence (O00187 other isoform, or with tags, fused parts or gaps limits assumed): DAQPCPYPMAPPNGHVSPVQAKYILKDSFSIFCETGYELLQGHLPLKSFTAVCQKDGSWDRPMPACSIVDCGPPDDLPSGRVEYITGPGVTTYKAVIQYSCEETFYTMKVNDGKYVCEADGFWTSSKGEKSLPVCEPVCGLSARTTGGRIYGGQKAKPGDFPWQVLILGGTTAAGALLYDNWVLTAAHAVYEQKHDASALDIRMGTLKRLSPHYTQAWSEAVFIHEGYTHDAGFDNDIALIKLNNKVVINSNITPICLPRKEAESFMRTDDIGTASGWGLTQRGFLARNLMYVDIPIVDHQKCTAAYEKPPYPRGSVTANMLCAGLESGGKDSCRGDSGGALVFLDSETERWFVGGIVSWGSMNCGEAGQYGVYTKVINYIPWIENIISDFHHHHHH
- methodSummary: cell-based or functional assay
Bridge positions count the residues as written; N and C are the ends. Square brackets hold non-standard residues; d marks the D form. Ends that are not written are not given here. Oic = O=C(O)[C@@H]1C[C@@H]2CCCC[C@@H]2N1; tBuAla = CC(C)(C)C[C@H](N)C(=O)O; Pen = CC(C)(S)[C@H](N)C(=O)O
experimentalReadout: human MASP2 IC50 (nM)
Write the answer as a number in nM, unit excluded.

Prompt line: Could you tell me which human MASP2 IC50 is on file for [tBuAla]ICSRSLP[Oic]I[Pen]IP-OH (disulfide 3-11; N-terminus assumed; SMILES CC[C@H](C)[C@H](NC(=O)[C@@H](N)CC(C)(C)C)C(=O)N[C@H]1CSSC(C)(C)[C@@H](C(=O)N[C@H](C(=O)N2CCC[C@H]2C(=O)O)[C@@H](C)CC)NC(=O)[C@H]([C@@H](C)CC)NC(=O)[C@@H]2C[C@@H]3CCCC[C@@H]3N2C(=O)[C@@H]2CCCN2C(=O)[C@H](CC(C)C)NC(=O)[C@H](CO)NC(=O)[C@H](CCCNC(=N)N)NC(=O)[C@H](CO)NC1=O) [Example 335: ((tBu)A)-IC+SRSLP-(Oic)-I-(Pen)+IP-OH] ?
Response line: 180
